These measurements were taken from ChEMBL document CHEMBL3797185.

# target-entity: Adenosine receptor A2b (Homo sapiens)
# Sequence (whole entry): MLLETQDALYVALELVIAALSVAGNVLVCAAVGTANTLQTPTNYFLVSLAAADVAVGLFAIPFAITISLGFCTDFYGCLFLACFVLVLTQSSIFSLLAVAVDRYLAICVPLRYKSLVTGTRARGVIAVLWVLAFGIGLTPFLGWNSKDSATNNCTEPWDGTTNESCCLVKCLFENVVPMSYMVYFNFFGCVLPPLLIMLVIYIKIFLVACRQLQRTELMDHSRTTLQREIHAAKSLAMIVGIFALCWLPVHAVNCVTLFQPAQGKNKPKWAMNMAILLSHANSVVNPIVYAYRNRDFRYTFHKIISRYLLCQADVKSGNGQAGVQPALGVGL
# protocol-notes: Antagonist activity at human adenosine A2B receptor expressed in CHO cell membranes assessed as inhibition of NECA-stimulated cAMP level at 1 uM preincubated for 10 mins followed by NECA stimulation by scintillation counting method in presence of [3H]-cyclic AMP
# Format: functional
Where inhibition equals or exceeds 8%, the correct label is true (1); where it does not, the label is false (0).

Reported inhibition reaches at least 8% for COc1ccccc1-n1cc2nc(-c3ccc(C)o3)nc(N)c2n1 ?
false (0)

Reported inhibition reaches at least 8% for COc1ccccc1-n1cc2nc(Cc3ccccc3)nc(N)c2n1 ?
false (0)

Reported inhibition reaches at least 8% for Cn1cc2nc(Cc3ccccc3)nc(N)c2n1 ?
true (1)

Reported inhibition reaches at least 8% for Nc1nc(-c2ccco2)nc2cn(-c3ccccc3)nc12 ?
false (0)

Reported inhibition reaches at least 8% for Nc1nc(-c2ccco2)nc2cn(Cc3ccccc3)nc12 ?
true (1)

Reported inhibition reaches at least 8% for COc1ccccc1-n1cc2nc(-c3ccco3)nc(N)c2n1 ?
true (1)

Reported inhibition reaches at least 8% for Nc1nc(-c2ccco2)nc2cn(CCc3ccccc3)nc12 ?
false (0)

Reported inhibition reaches at least 8% for Nc1nc(-c2ccco2)nc2cn(-c3ccccc3O)nc12 ?
true (1)

Reported inhibition reaches at least 8% for COc1ccccc1Cn1cc2nc(-c3ccc(C)o3)nc(N)c2n1 ?
true (1)

Reported inhibition reaches at least 8% for Nc1nc(Cc2ccccc2)nc2cn(Cc3ccccc3)nc12 ?
false (0)

* * *

As an illustration, consider measured pKi for compounds on Adenosine receptor A2a (Homo sapiens).
Sequence (P29274 whole entry): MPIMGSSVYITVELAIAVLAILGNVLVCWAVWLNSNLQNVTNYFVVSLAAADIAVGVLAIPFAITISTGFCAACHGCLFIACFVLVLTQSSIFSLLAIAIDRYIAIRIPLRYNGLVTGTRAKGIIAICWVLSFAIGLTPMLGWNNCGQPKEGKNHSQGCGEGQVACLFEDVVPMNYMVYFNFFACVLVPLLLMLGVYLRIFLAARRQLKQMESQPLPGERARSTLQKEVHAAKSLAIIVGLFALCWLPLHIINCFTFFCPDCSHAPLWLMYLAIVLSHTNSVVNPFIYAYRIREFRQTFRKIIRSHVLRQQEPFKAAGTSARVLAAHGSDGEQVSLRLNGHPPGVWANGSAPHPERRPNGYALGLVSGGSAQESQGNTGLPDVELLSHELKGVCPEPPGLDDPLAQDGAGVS
Field pKi (float): negative decimal logarithm of the concentration in molar.

Supply pKi value. Item: Cc1ccc(-c2nc(N)c3nn(Cc4ccccc4O)cc3n2)o1
7.42

Supply pKi value. Item: Nc1nc(-c2ccco2)nc2cn(-c3ccccc3)nc12
6.71

Supply pKi value. Item: Nc1nc(-c2ccco2)nc2cn(-c3ccccc3O)nc12
7.05

Supply pKi value. Item: Nc1nc(-c2ccco2)nc2cn(Cc3ccccc3O)nc12
7.77

Supply pKi value. Item: Cc1ccc(-c2nc(N)c3nn(Cc4ccccc4)cc3n2)o1
8.03

Supply pKi value. Item: Cc1ccc(-c2nc(N)c3nn(Cc4cccc(F)c4)cc3n2)o1
7.29

* * *

# target-entity: Adenosine receptor A2b (Homo sapiens)
# protocol-notes: Antagonist activity at human adenosine A2B receptor expressed in CHO cell membranes assessed as inhibition of NECA-stimulated cAMP level at 1 uM preincubated for 10 mins followed by NECA stimulation by scintillation counting method in presence of [3H]-cyclic AMP
# Assay type: functional
quantity-kind: inhibition (%)
Write the value in % as a bare number.

Supply inhibition value. Item: Nc1nc(CCCc2ccccc2)nc2cn(-c3ccccc3F)nc12
1

Supply inhibition value. Item: Cc1nc(N)c2nn(Cc3ccccc3)cc2n1
1

Supply inhibition value. Item: Cc1ccc(-c2nc(N)c3nn(-c4ccccc4)cc3n2)o1
32

Supply inhibition value. Item: COc1ccccc1-n1cc2nc(-c3cccs3)nc(N)c2n1
1

Supply inhibition value. Item: COc1ccccc1-n1cc2nc(CCCc3ccccc3)nc(N)c2n1
21

Supply inhibition value. Item: Cc1ccc(-c2nc(N)c3nn(Cc4ccccc4)cc3n2)o1
20

Supply inhibition value. Item: Cc1ccc(-c2nc(N)c3nn(-c4ccccc4O)cc3n2)o1
1

Supply inhibition value. Item: Nc1nc(-c2cccs2)nc2cn(-c3ccccc3O)nc12
28

Supply inhibition value. Item: Cc1nc(N)c2nn(CCc3ccccc3)cc2n1
3

Supply inhibition value. Item: Nc1nc(CCCc2ccccc2)nc2cn(-c3ccccc3O)nc12
5

Supply inhibition value. Item: Nc1nc(Cc2ccccc2)nc2cn(-c3ccccc3O)nc12
1

Supply inhibition value. Item: Cn1cc2nc(CCCc3ccccc3)nc(N)c2n1
2
